For each of the compounds below, state its potency estimated from few doses.
# System: CLK1
# Design: species or system human, MV4-11 + K-562 + COLO205 + SK-N-BE2 + OVCAR-8
# COND: read-out: apparent Kd; compound concentrations:100 nM and 1000 nM (sheet 'Samples'); n = 1
Your answer should be a plain number; it is taken to be in µM.

INPUT: Could you share what potency estimated from few doses was measured for COc1cc(/C=N/Nc2ncnc3[nH]ncc23)ccc1O [GW578748X] , tested on CLK1?
OUTPUT: 1.37

INPUT: Could you share what potency estimated from few doses was measured for COc1cc2ncn(-c3cc(OCCCc4ccccc4)c(C(N)=O)s3)c2cc1OC [GSK205189A] , tested on CLK1?
OUTPUT: 0.105

INPUT: Could you share what potency estimated from few doses was measured for Cc1occc1-c1nc(N)c(OC[C@@H](N)Cc2c[nH]c3ccccc23)cc1-c1cc2c(C)n[nH]c2cn1 [GSK1660450B] , tested on CLK1?
OUTPUT: 0.339

INPUT: Could you share what potency estimated from few doses was measured for C[C@@H]1CCNC(=O)c2cc3ccc(C(=O)Nc4nc5ccccc5n4CCCN(C)C)cc3n21 [BI00645435] , tested on CLK1?
OUTPUT: 0.941

INPUT: Could you share what potency estimated from few doses was measured for CS(=O)(=O)CCn1c(=O)c(Oc2ccc(F)cc2F)cc2cnc(NC3CCOCC3)nc21 [RO5027956-000] , tested on CLK1?
OUTPUT: 1.12

INPUT: Could you share what potency estimated from few doses was measured for Cc1ccc2c(-c3ccncc3)c(-c3ccc(F)cc3)nn2c1.Cl [GW461484A] , tested on CLK1?
OUTPUT: 0.548

INPUT: Could you share what potency estimated from few doses was measured for Cl.Cl.NCC(C(=O)Nc1cc(Br)c(-c2ccnc3[nH]ccc23)s1)c1ccccc1.NCC(C(=O)Nc1cc(Br)c(-c2ccnc3[nH]ccc23)s1)c1ccccc1 (stereo not shown) [GSK1269851A] , tested on CLK1?
OUTPUT: 0.449

Numbers sourced from paper PMC11062922.
